- TARGET UNDER TEST: huCD28 (human, UniProt P10747 19-152, limits assumed)
- PROTOCOL NOTES: SPR, OAA format
QUANTITY KIND: Fold-change from WT
Answer with the figure and its unit, nothing else.

Qu. So what does the record say about Fold-change from WT for v37855 (antibody, V domains shown, OAA format as v34891; also called huTN228 G1111A (VH) OAA) VH: QVQLQESGPGLVKPSETLSLTCAVSGFSLTSYGVHWIRQPPGKGLEWLGVIWPGGGTNFNSALMSRLTISEDTSKNQVSLKLSSVTAADTAVYYCARDRAYANYLYAMDYWGQGTLVTVSS VL: DIQMTQSPSSLSASVGDRVTITCRASESVEYYVTSLMQWYQQKPGKAPKLLIYAASNVDSGVPSRFSGSGSGTDFTLTISSLQPEDIATYYCQQSRKVPFTFGGGTKVEIK ?
Ans. 0.84 fold
